Reported pIC50 values for a set of compounds
Test system: P388
Assay: In vitro cytotoxicity against p388 (murine leukemia) cells.
Format: functional, cell-based
Details: Mus musculus
pIC50: −log10 of the molar value.

compound | targetEntity | comparisonOperator | pIC50
O=C1c2c(c3c4ccc(O)cc4n(C4OC(CO)C(O)C(O)C4O)c3c3[nH]c4ccc(O)cc4c23)C(=O)N1NC(CO)CO (stereo not given) | P388 | = | 8.28
O=C1c2c(c3c4c(O)cccc4n(C4OC(CO)C(O)C(O)C4O)c3c3[nH]c4ccccc4c23)C(=O)N1NC(CO)CO (stereo not given) | P388 | = | 6.04
O=C1c2c(c3c4ccccc4n(C4OC(CO)C(O)C(O)C4O)c3c3[nH]c4cc(O)ccc4c23)C(=O)N1NC(CO)CO (stereo not given) | P388 | = | 7.89
O=C1c2c(c3c4ccc(O)cc4n(C4OC(CO)C(O)C(O)C4O)c3c3[nH]c4ccccc4c23)C(=O)N1NC(CO)CO (stereo not given) | P388 | = | 8.51
O=C1c2c(c3c4ccccc4n(C4OC(CO)C(O)C(O)C4O)c3c3[nH]c4c(O)cccc4c23)C(=O)N1NC(CO)CO (stereo not given) | P388 | = | 6.85
O=C1c2c(c3c4cc(O)cc(O)c4n(C4OC(CO)C(O)C(O)C4O)c3c3[nH]c4c(O)cc(O)cc4c23)C(=O)N1NC(CO)CO (stereo not given) | P388 | < | 4.52
O=C1c2c(c3c4ccc(O)cc4n(C4OC(CO)C(O)C(O)C4O)c3c3[nH]c4c(O)cc(O)cc4c23)C(=O)N1NC(CO)CO (stereo not given) | P388 | = | 4.82
O=C1c2c(c3c4ccccc4n(C4OC(CO)C(O)C(O)C4O)c3c3[nH]c4cccc(O)c4c23)C(=O)N1NC(CO)CO (stereo not given) | P388 | = | 6.15
O=C1c2c(c3c4ccc(O)cc4n(C4OC(CO)C(O)C(O)C4O)c3c3[nH]c4c(O)cccc4c23)C(=O)N1NC(CO)CO (stereo not given) | P388 | = | 8.00
O=C1c2c(c3c4cccc(O)c4n(C4OC(CO)C(O)C(O)C4O)c3c3[nH]c4cc(O)ccc4c23)C(=O)N1NC(CO)CO (stereo not given) | P388 | = | 8.27
O=C1c2c(c3c4cc(O)ccc4n(C4OC(CO)C(O)C(O)C4O)c3c3[nH]c4c(O)cccc4c23)C(=O)N1NC(CO)CO (stereo not given) | P388 | = | 7.51
O=C1c2c(c3c4cc(O)ccc4n(C4OC(CO)C(O)C(O)C4O)c3c3[nH]c4ccccc4c23)C(=O)N1NC(CO)CO (stereo not given) | P388 | = | 7.33
O=C1c2c(c3c4ccccc4n(C4OC(CO)C(O)C(O)C4O)c3c3[nH]c4ccc(O)cc4c23)C(=O)N1NC(CO)CO (stereo not given) | P388 | = | 6.89
O=C1c2c(c3c4cccc(O)c4n(C4OC(CO)C(O)C(O)C4O)c3c3[nH]c4ccccc4c23)C(=O)N1NC(CO)CO (stereo not given) | P388 | = | 7.66
O=C1c2c(c3c4ccc(O)cc4n(C4OC(CO)C(O)C(O)C4O)c3c3[nH]c4cc(O)ccc4c23)C(=O)N1NC(CO)CO (stereo not given) | P388 | = | 8.82
